Items are presented alongside their recorded protein stability index.
- Tested on: Saccharomyces cerevisiae
- assayMethodText: protein stability index of tFT-peptide fusion (C-terminal peptide) (PSI (0-1 scale)); higher = more stable (slower turnover)
- conditionDetails: genetic background: das1 deletion; temperature: 37 C

WRCECELASACA	0.508
VVWIQRTVLSLI	0.6
DIRLWISCTLWF	0.425

Missing value: protein stability index, Saccharomyces cerevisiae, entry `RVTRLDAIYFRI` . Fill in?
0.351

Missing value: protein stability index, Saccharomyces cerevisiae, entry `IDLVAFCTIFAL` . Fill in?
0.516

Missing value: protein stability index, Saccharomyces cerevisiae, entry `IIFCVRVVGGDL` . Fill in?
0.557

Missing value: protein stability index, Saccharomyces cerevisiae, entry `CKGPPVKFIVLM` . Fill in?
0.736

Missing value: protein stability index, Saccharomyces cerevisiae, entry `KLLISLTWFCVL` . Fill in?
0.527

Missing value: protein stability index, Saccharomyces cerevisiae, entry `FSVTTLTILCLR` . Fill in?
0.394

Missing value: protein stability index, Saccharomyces cerevisiae, entry `FCRLTFCFFAFL` . Fill in?
0.641

Missing value: protein stability index, Saccharomyces cerevisiae, entry `VCWCVVVLEFGL` . Fill in?
0.363

Missing value: protein stability index, Saccharomyces cerevisiae, entry `IKSLLGCWHKHY` . Fill in?
0.715

Missing value: protein stability index, Saccharomyces cerevisiae, entry `IHRSPLTLPLLV` . Fill in?
0.573

Missing value: protein stability index, Saccharomyces cerevisiae, entry `FLFLSPLALHVS` . Fill in?
0.513

Missing value: protein stability index, Saccharomyces cerevisiae, entry `GITSFFSWSFLS` . Fill in?
0.782

Missing value: protein stability index, Saccharomyces cerevisiae, entry `SCFRSLAVYFLC` . Fill in?
0.678

Missing value: protein stability index, Saccharomyces cerevisiae, entry `LRVAWVCISIVA` . Fill in?
0.164

Missing value: protein stability index, Saccharomyces cerevisiae, entry `LDVGGRRGGEHC` . Fill in?
0.667

Missing value: protein stability index, Saccharomyces cerevisiae, entry `LLVYLYFFFSCS` . Fill in?
0.484

Missing value: protein stability index, Saccharomyces cerevisiae, entry `LWLFIVCWVGCV` . Fill in?
0.339

Missing value: protein stability index, Saccharomyces cerevisiae, entry `VLVVRVLLSDLV` . Fill in?
0.366

* * *

- Tested on: Saccharomyces cerevisiae
- assayMethodText: protein stability index of tFT-peptide fusion (C-terminal peptide) (PSI (0-1 scale)); higher = more stable (slower turnover)
- conditionDetails: genetic background: wild type; temperature: 30 C
Items are presented alongside their recorded protein stability index.

Look over these answered cases.
PPPLPPPPASPP	0.685
GFMRGVREKSSR	0.701

Return reported protein stability index; argument: `ASSDRWVVYLYG`
0.685

Return reported protein stability index; argument: `PPLSSPPSLSPP`
0.703

Return reported protein stability index; argument: `TAVPRARRRVVR`
0.712

* * *

- System: Saccharomyces cerevisiae
- assayMethodText: protein stability index of tFT-peptide fusion (C-terminal peptide) (PSI (0-1 scale)); higher = more stable (slower turnover)
- conditionDetails: genetic background: das1 deletion; temperature: 30 C
propertyLabel: protein stability index
Hey, just send me the number, nothing else.

IRRYPFLWIPFL [YMR316C-B C-terminal 12 aa]	0.709
RLDKATKALEGF [NBA1 C-terminal 12 aa]	0.694
LCMSCGYVSAGK [YMR173W-A C-terminal 12 aa]	0.697
ELTDFKYPSNYE [PUT2 C-terminal 12 aa]	0.679
ESSAFEYPGGRL [BOI1 C-terminal 12 aa]	0.709

Return reported protein stability index; argument: EVAKSLTLQYDV [CNB1 C-terminal 12 aa]
0.699

Return reported protein stability index; argument: LMRRFVLEFEKQ [SEC6 C-terminal 12 aa]
0.716

Return reported protein stability index; argument: DSVEMKFDKLNI [RBS1 C-terminal 12 aa]
0.682

Return reported protein stability index; argument: DIYEIRGTALDD [DSL1 C-terminal 12 aa]
0.699

Return reported protein stability index; argument: SFSRIDCCLPDE [TDA5 C-terminal 12 aa]
0.72

Return reported protein stability index; argument: AKNGDYVKIEQP [YMR315W C-terminal 12 aa]
0.679

Return reported protein stability index; argument: RTHAMLNDIQNI [BNR1 C-terminal 12 aa]
0.72

Return reported protein stability index; argument: ENNEKFLNIRLY [CDC24 C-terminal 12 aa]
0.71

Return reported protein stability index; argument: ESDHPTLADNSV [MRL1 C-terminal 12 aa]
0.695

Return reported protein stability index; argument: RFAKGGKFVEVD [ATP18 C-terminal 12 aa]
0.69

Return reported protein stability index; argument: RVLNNLIVSHNK [MOT3 C-terminal 12 aa]
0.71

Return reported protein stability index; argument: LPPGRVFSRVRR [MRPL35 C-terminal 12 aa]
0.683

Return reported protein stability index; argument: NVPSFGQDELDQ [MPS3 C-terminal 12 aa]
0.699

Return reported protein stability index; argument: TKPNNGLNITNY [MTL1 C-terminal 12 aa]
0.689

Return reported protein stability index; argument: VPNDNNEQRSSQ [SAN1 C-terminal 12 aa]
0.704

Return reported protein stability index; argument: FIEMSLASSFAG [MBR1 C-terminal 12 aa]
0.713

Return reported protein stability index; argument: GWYVGRYYRITR [IMD1 C-terminal 12 aa]
0.714

Return reported protein stability index; argument: STFTLNLEDVSK [ECM12 C-terminal 12 aa]
0.711

Return reported protein stability index; argument: MKDFSKNEQKEK [SEY1 C-terminal 12 aa]
0.719

Return reported protein stability index; argument: ITSKPPATVEWE [GUA1 C-terminal 12 aa]
0.695

Return reported protein stability index; argument: FVKTIADTLSFS [PRR1 C-terminal 12 aa]
0.7

Return reported protein stability index; argument: NTAKATYDLYTN [GPI8 C-terminal 12 aa]
0.686

* * *

- Tested on: Saccharomyces cerevisiae
- assayMethodText: protein stability index of tFT-peptide fusion (C-terminal peptide) (PSI (0-1 scale)); higher = more stable (slower turnover)
- conditionDetails: genetic background: das1 deletion; temperature: 30 C
Items are presented alongside their recorded protein stability index.
Hey, just send me the number, nothing else.

Look over these answered cases.
SVLYAIDFSAAF [EMA35 C-terminal 12 aa]	0.717
EKKKIFKGNKTD [YLR030W C-terminal 12 aa]	0.696
RKLFLVVKDNIL [JIP3 C-terminal 12 aa]	0.695

Missing value: protein stability index, Saccharomyces cerevisiae, entry NVTGSANNGTHI [SVS1 C-terminal 12 aa] . Fill in?
0.708

Missing value: protein stability index, Saccharomyces cerevisiae, entry QSQYPDVGIPAI [YAR023C C-terminal 12 aa] . Fill in?
0.708

Missing value: protein stability index, Saccharomyces cerevisiae, entry NRRSDKNLPDAT [STE12 C-terminal 12 aa] . Fill in?
0.708

Missing value: protein stability index, Saccharomyces cerevisiae, entry GLLRKGLVKRDI [YHR193C-A C-terminal 12 aa] . Fill in?
0.688

Missing value: protein stability index, Saccharomyces cerevisiae, entry VLREEVKKEEEN [KRS1 C-terminal 12 aa] . Fill in?
0.691

Missing value: protein stability index, Saccharomyces cerevisiae, entry KKFIYQQLDMFS [YOL024W C-terminal 12 aa] . Fill in?
0.718

Missing value: protein stability index, Saccharomyces cerevisiae, entry WLDKHTTTEAKP [YJU3 C-terminal 12 aa] . Fill in?
0.709

* * *

- Test system: Saccharomyces cerevisiae
- assayMethodText: protein stability index of tFT-peptide fusion (C-terminal peptide) (PSI (0-1 scale)); higher = more stable (slower turnover)
- conditionDetails: genetic background: wild type; temperature: 30 C
propertyLabel: protein stability index
Hey, just send me the number, nothing else.

PLLPPALCPFPP	0.685
FRCPHAVKLVLV	0.311
FFFFPFLPFSWF	0.507
LRCSKRNKSMGQ	0.648
LYDCQHTFILSR	0.643
KKRNMRINSKKQ	0.7
VFVLFCAFVRAL	0.211
GGAGSVAGVWAV	0.673
VWGQGTPFRVVM	0.655
SGGGGGKEAVVR	0.646

Return reported protein stability index; argument: `MALAVRVVACGA`
0.261

Return reported protein stability index; argument: `RWPQNRGRVSKP`
0.747

* * *

Items are presented alongside their recorded protein stability index.
- System: Saccharomyces cerevisiae
- assayMethodText: protein stability index of tFT-peptide fusion (C-terminal peptide) (PSI (0-1 scale)); higher = more stable (slower turnover)
- conditionDetails: genetic background: wild type; temperature: 30 C
Hey, just send me the number, nothing else.

Look over these answered cases.
LAPPPQKQSSSD [GRH1 C-terminal 12 aa]	0.729
LIDVVPRRPLPQ [HAP5 C-terminal 12 aa]	0.723
ENNDNDDNDGLF [CTR9 C-terminal 12 aa]	0.701
LNEKESTKLFYR [ELP6 C-terminal 12 aa]	0.701

Return reported protein stability index; argument: LASKHSQYTSPQ [RGT2 C-terminal 12 aa]
0.662

Return reported protein stability index; argument: KRNFCPFHDAVF [PIB1 C-terminal 12 aa]
0.716
